These measurements were taken from patent US20170304444A1.

Reported pKd values for the following binders.
Target: T1, glucocorticoid-induced tumor necrosis factor receptor (GITR) (human, UniProt Q9Y5U5 26-241)
T1 chain: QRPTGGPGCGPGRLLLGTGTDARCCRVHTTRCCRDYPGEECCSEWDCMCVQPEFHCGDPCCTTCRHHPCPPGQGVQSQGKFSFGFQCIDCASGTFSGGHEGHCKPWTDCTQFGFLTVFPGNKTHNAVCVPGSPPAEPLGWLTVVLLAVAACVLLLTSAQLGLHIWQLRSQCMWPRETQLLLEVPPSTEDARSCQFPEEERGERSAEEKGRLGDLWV
Experiment: BLI
pKd: −log10 of the molar value.

# binder, pKd
measured = [
    ("mAb #7-192 (antibody, V domains shown) VH: EVQLVESGAEVKKPGASVKVSCKTSGYTFTDHYIHWVRQAPGQGLEWMGWINPSSGGTEYAQKFQGRVTMTRDTPISTAYMDLSGLRSDDTAVYYCARETIGGWNALDVWGQGTLVTVSS VL: MPVLTQPPSVSVAPGQTARITCGGHKIGTKSVHWYQQKPGQAPVLVVYDDRDRPSGIPERFSGSNSGGTATLTISRVEAGDEADYYCQVWDSNSDHVVFGGGTKLTVLS", 8.50),
    ("mAb #12-46 (antibody, V domains shown) VH: EVQLVQSGAEVKKPGASVKVSCKASGYTFTGYYMHWVRQAPGQGLEWMGWINPKTGDTNYAQKFQGRVALSRDTSFNTAYMDLSSLRSDDTAVYYCAREGLSTSSPLDYWGQGTLVTVSS VL: QPGLTQPPSVSVAPGQSAKITCGENELATNIVHWYQQKPGQAPVLVIYHDNDRPSGIPERFSGSNAGNTATLTISRVEAGDEADFYCQLWDSASDQVVFGGGTTLTVLG", 8.30),
    ("mAb #14-182 (antibody, V domains shown) VH: QVQLVQSGAEVKQPGSSVKVSCKASGYTFTGYYMHWVRQAPGEGLEWLGWINPHSGGTNYAQKFQGRVTITADKSTSTAYMELSSLRSEDTAVYYCAREIVVVTAPAAAAMDVWGQGTLVTVSS VL: QSVLTQPPSASGSPGQSVTISCTGSSSDVAIYDRVSWYQQPPGTAPKLILYDVHDRPSGVPDRFSGSKSGNTASLTISGLQAEDEADYYCSSYTTSGTFVFGSGTKVTVLG", 8.74),
]
